# Tested on: ATP;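 also: ATP exposure 15 min at 22 °C before imaging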
# TEST_NAME: switch fluorescence ratio, 500 uM ATP over buffer (Cy3 cluster intensity, sum of 5 cycles each) (fold (ratio)); higher = stronger signal-on switching upon ATP binding; sequences stand for … in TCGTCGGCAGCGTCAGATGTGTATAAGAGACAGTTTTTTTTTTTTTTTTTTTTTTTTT…TC
# SETTINGS: aptamer strand: ATP DNA aptamer (quencher-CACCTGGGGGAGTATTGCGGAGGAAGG + anchor), 100 nM annealed; ATP concentration: 500 uM
READOUT: switch fluorescence ratio
Response field accepts a number only; no unit should be typed.

RECORD_SEQUENCE	TARGET_OR_SYSTEM	NUMBER
CCATAACGGG	ATP	0.975
TTATTGATTT	ATP	1.02
TTAGTCCCCG	ATP	1.02
GGTGGGGCAC	ATP	0.999
GGGTAACGGA	ATP	1.03
GGAGTGGGAT	ATP	1.03
CAGTGCGCTT	ATP	1.1
ACTGTTATTT	ATP	1.04
ATAATGCAGC	ATP	0.988
TTGATTAGTT	ATP	0.982

Summary for this sequence, "CCGGCCCCGG" : switch fluorescence ratio is 1.68

Summary for this sequence, "AATGGGGCGG" : switch fluorescence ratio is 1.03

====

# Test system: ATP;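 also: ATP exposure 15 min at 22 °C before imaging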
# TEST_NAME: switch fluorescence ratio, 500 uM ATP over buffer (Cy3 cluster intensity, sum of 5 cycles each) (fold (ratio)); higher = stronger signal-on switching upon ATP binding; sequences stand for … in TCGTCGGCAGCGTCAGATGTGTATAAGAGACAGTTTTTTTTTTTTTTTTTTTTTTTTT…TC
# SETTINGS: aptamer strand: ATP DNA aptamer (quencher-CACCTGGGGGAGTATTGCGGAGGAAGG + anchor), 100 nM annealed; ATP concentration: 500 uM
Each record here notes measured switch fluorescence ratio.
Response field accepts a number only; no unit should be typed.

Here's what some known entries look like.
RECORD_SEQUENCE	switch fluorescence ratio
GCCCAGTCCT	1.03
GAAAGTTTGG	1.01
GTTCCGGCTG	1.02
TTACGGACGA	1.32
GGTCGAGGGG	0.997
CAAATGCATA	1.08
AAGTTCATCT	1
TTTTGGAAGT	0.993

Summary for this sequence, "ACTGAGGTAA" : switch fluorescence ratio is 0.95

Summary for this sequence, "GTTGTAACGT" : switch fluorescence ratio is 0.988

Summary for this sequence, "GGATGTTTTG" : switch fluorescence ratio is 1.03

Summary for this sequence, "TTGGGGTTTG" : switch fluorescence ratio is 0.975

Summary for this sequence, "TTGAAATAGT" : switch fluorescence ratio is 1.01

Summary for this sequence, "ATACGCGGGC" : switch fluorescence ratio is 1.27

Summary for this sequence, "TGGAGGTCTA" : switch fluorescence ratio is 1

Summary for this sequence, "TGAAGACTGA" : switch fluorescence ratio is 1

Summary for this sequence, "CGGTTAAAGG" : switch fluorescence ratio is 0.974

====

# System: ATP;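 also: ATP exposure 15 min at 22 °C before imaging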
# TEST_NAME: switch fluorescence ratio, 500 uM ATP over buffer (Cy3 cluster intensity, sum of 5 cycles each) (fold (ratio)); higher = stronger signal-on switching upon ATP binding; sequences stand for … in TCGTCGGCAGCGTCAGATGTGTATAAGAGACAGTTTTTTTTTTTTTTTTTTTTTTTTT…TC
# SETTINGS: aptamer strand: ATP DNA aptamer (quencher-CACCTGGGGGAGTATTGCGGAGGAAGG + anchor), 100 nM annealed; ATP concentration: 500 uM
Outcome: Fulfilled for switch fluorescence ratio of at least 1; Not fulfilled for anything lower.

Worked examples, 3 sequences total:
RECORD_SEQUENCE	CLASS_NAME
TCCATAGGGG	Fulfilled
TGGTGAGGCT	Not fulfilled
GTGGAAGGGC	Fulfilled

// switching to the query sequence
Hi team, for "CTTGCAAACG" , is the recorded switch fluorescence ratio at or above 1? Fulfilled
